Attribution: PubChem BioAssay (NCI)

- Tested on: A549 NSCLC
- Measurement Notes: NCI tumour cell line growth inhibition, 48 h; in the data active = GI50 below about 0.43 µM; inactive = the rest
Classes used: active, inactive

Compound	Target Desc	Answer Label
O=S(=O)(N=C1C(Cl)=C(Cl)C(=NS(=O)(=O)c2ccccc2)C(Cl)=C1Cl)c1ccccc1	A549 NSCLC	inactive
NC(=S)N/N=C/c1ccc(OC(=O)COc2cc(Cl)c(Cl)cc2Cl)cn1	A549 NSCLC	inactive
NCCCCC(NC(=O)C(N)CCCN=C(N)N)C(=O)NC(CCCCN)C(=O)NC(CCCN=C(N)N)C(=O)NC(CCCN=C(N)N)C(=O)NC(CCC(N)=O)C(=O)NC(CCCN=C(N)N)C(=O)NC(CCCN=C(N)N)C(=O)NC(CCCN=C(N)N)C(=O)NCC(=O)NCC(=O)O (centres undefined)	A549 NSCLC	inactive
COc1ccc2c(c1)CCC1C2CC[C@@]2(C)C1CC[C@@H]2NC(=O)Cc1ccc(O)c(O)c1 (some centres undefined)	A549 NSCLC	inactive
COc1ccc2cc(-c3cnc4nonc4n3)ccc2c1	A549 NSCLC	inactive
Cc1ccc(CNc2ccc3nc(CCC4CCCCC4)[nH]c3c2)cc1	A549 NSCLC	inactive
CCC[CH2][Sn](=[O])[CH2]CCC	A549 NSCLC	inactive
CCC(CC)n1cnc2c(-c3cnc(N)cn3)nc(N3CC4CCC(C3)O4)nc21	A549 NSCLC	active
CCC1=C(c2ccc(OC)cc2)C(C)(C)Oc2c1ccc(O)c2CN1CCCC1	A549 NSCLC	inactive
Cc1c(Cn2c(C)nc3c(C(=O)O)cc(N4CCOCC4)cc32)cccc1C(F)(F)F	A549 NSCLC	inactive
CCN1CCN(CCNc2nccc(-c3c(-c4ccc(F)c(O)c4)nc4occn34)n2)S1(=O)=O	A549 NSCLC	inactive
O=C(O)Cc1cccc2c(=O)cc(-c3ccccc3)oc12	A549 NSCLC	inactive
FC1(F)ON2CCc3ccccc3C2[C@H]1c1ccccc1 (some centres undefined)	A549 NSCLC	inactive
Oc1ccccc1-c1nn(CNc2ccc(Cl)cc2)c(=S)o1	A549 NSCLC	inactive

* * *

- Test system: A549 NSCLC
- Measurement Notes: NCI tumour cell line growth inhibition, 48 h
Parameter TGI: see the listing below.
Assay Metric: TGI (µM)

In [3]: df
Out[3]:
                                   molecule  assay_metric  unit_string  reported_relation  experimental_result
0  CC1(C)Oc2ccc3ccc(=O)oc3c2C(O)C1O (configuration not stated)           TGI           µM                  >                  100
1  Cc1cc2c(F)c(Oc3ncnc(Nc4ccc(N5C[C@@H](C)N[C@@H](C)C5)cc4)c3C#N)cc(F)c2[nH]1           TGI           µM                  =                 8.02
2  CC(C)(C)C(=O)N1C(C(=O)O)Cc2ccccc2[C@@H]1Cc1ccccc1 (some centres not stated)           TGI           µM                  >                  100
3  CCC(CC)n1cnc2c(-c3cnc(N)cn3)nc(N3CC4CCC(C3)O4)nc21           TGI           µM                  >                  100
4  C=C(/C=C/C=C(\C)CCC=C(C)C)[C@@H]1CC[C@]2([C@H](CCCO)/C(=C(/C)C=O)CC[C@]2(C)O)[C@@H]1O           TGI           µM                  =                 38.2
5  C#C[C@]1(O)CC[C@H]2[C@@H]3CCC4=C/C(=N\OCCN5CCCCC5)CC[C@]4(C)[C@H]3CC[C@@]21C           TGI           µM                  =                 22.7
6  COc1cc(-c2nn(-c3cccc(NC(=O)Nc4ccc(Cl)c(C(F)(F)F)c4)c3)cc2-c2ccncc2)ccc1Cl           TGI           µM                  =                 16.7

* * *

- System: OVCAR-3 ovarian
- Measurement Notes: NCI tumour cell line growth inhibition, 48 h

Compound	TGI
Fc1cc(C2=Nn3c(COc4ccccc4Cl)nnc3S/C2=C\c2ccc(Cl)cc2)c(Cl)cc1Cl	62 µM
CC(=O)OC12C(C)=C(C)C(=O)N1c1ccccc1N2C(C)=O (stereo not drawn)	> 100 µM
CC1OC(OC2C(O)COC(OC3C(C)OC(OC4C(OC(=O)[C@]56CCC(C)(C)C[C@@H]5C5=CCC7[C@@]8(C)C[C@H](O)[C@H](OC9OC(CO)C(O)C(O)C9O)[C@@](C)(CO)[C@@H]8CC[C@@]7(C)[C@]5(C)CC6)OCC(O)C4O)C(O)C3O)C2O)C(O)C(O)C1O (stereo partly drawn)	40.6 µM

* * *

- System: HT29 colon
- Measurement Notes: NCI tumour cell line growth inhibition, 48 h
Assay Metric: TGI (µM)

In [3]: df
Out[3]:
                                   molecule  reported_relation  experimental_result
0     Cc1ccc(/C=C/C(=O)c2ccc(Cl)c(Cl)c2)cc1                  >                  100
1  COc1ccc(N2C(=O)C3CC(c4ccc(Br)cc4)c4c([nH]c5ccccc45)C3C2=O)cc1 (stereo not given)                  =                 44.5
2  COc1ccc2c(c1)c1c3c(ccc4ncn2c43)N(CCO)CCN=1                  =                0.898
3  Cc1ccc(NCC2(/N=C/c3ccccc3)OC(CO)C(O)C2O)cc1 (stereo not given)                  >                  100
4     Oc1ccccc1-c1nn(CNc2ccc(Cl)cc2)c(=S)o1                  =                 88.1
5  C(=N\c1nc2cc3sc(/N=C/c4ccccc4)nc3cc2s1)/c1ccccc1                  >                  100
6  Cc1c(NC(=S)Nc2ccc([N+](=O)[O-])cc2)c(=O)n(-c2ccccc2)n1C                  >                  100
7  Cc1ccc2c(c1)nc1n2C(c2c(F)cccc2F)SC1 (stereo not given)                  >                  100
8  Cc1ccc(S(=O)(=O)ON2C(=O)c3cccc4cc([N+](=O)[O-])cc(c34)C2=O)cc1                  =                 79.3
9  COc1ccc(C2SCC(=O)N2c2ccc(-n3c(-c4ccccc4)nc4ccccc4c3=O)cc2)cc1 (stereo not given)                  >                  100

* * *

Parameter TGI: see the listing below.
- Test system: BT-549 breast
- Measurement Notes: NCI tumour cell line growth inhibition, 48 h
Assay Metric: TGI

In [3]: df
Out[3]:
                                   compound  assay_metric  experimental_result
0         COC(=O)c1ccc(NCc2cc(OC)ccc2OC)cc1           TGI             > 100 µM
1  Cc1cc(OCc2nnc3n2S(=O)(=O)c2ccccc2N3C)ccc1Cl           TGI              36.4 µM
2  C=C1C2CCC3C4(C)CCCC(C)(C(=O)O)C4CCC3(C2)C1OC(=O)/C(C)=C/C (stereo unspecified)           TGI             > 100 µM
3                       ClCc1nc2ccccc2[nH]1           TGI             > 100 µM
4  C#C[C@]1(O)CC[C@H]2[C@@H]3CCC4=C/C(=N\OCCN5CCCCC5)CC[C@]4(C)[C@H]3CC[C@@]21C           TGI              17.6 µM
5  Cc1ccc(OP(=O)(Oc2ccc(C)cc2)N2C=Cc3ccccc3C2C#N)cc1 (stereo unspecified)           TGI             > 100 µM

* * *

- Test system: SN12C renal
- Measurement Notes: NCI tumour cell line growth inhibition, 48 h
Parameter TGI: see the listing below.
Assay Metric: TGI (µM)

In [3]: df
Out[3]:
                                   compound  assay_metric  reported_relation  experimental_result
0  CCOP(=O)(OCC)Oc1c(OC)c2[nH]c(C(=O)OC)cc2c2c(C(=O)O)c[nH]c12           TGI                  >                  100
1                CCC[CH2][Sn](=[O])[CH2]CCC           TGI                  >                   50
2  COc1cc(CCC[P+](c2ccccc2)(c2ccccc2)c2ccccc2)c(OC)c2c1OCO2           TGI                  =                 10.5
3  CC(C)(C)c1ccc2c(c1)OP1(Oc3c(Cl)cc(Cl)c4cccnc34)(O2)Oc2ccc(C(C)(C)C)cc2O1           TGI                  =                 30.8
4      COc1cc2nc(Nc3cccc(Cl)c3)nc(N)c2cc1OC           TGI                  =                 24.3
5  CC(Oc1ccc2c(-c3ccc(Cl)cc3)cc(=O)oc2c1)C(=O)O (stereo not drawn)           TGI                  >                  100
6  COc1ccc(N2C(=O)C3CC(c4ccc(Br)cc4)c4c([nH]c5ccccc45)C3C2=O)cc1 (stereo not drawn)           TGI                  =                 15.2
7               CN(C)c1ccc(/C=N/NC(N)=S)nc1           TGI                  >                  100
